Sourced from ChEMBL document CHEMBL3259717

Measured selectivity ratio accompanies every entry in the list below.
Experiment Description: Selectivity index, ratio of LD50 for human HepG2 cells to MIC90 for replicating form of Mycobacterium tuberculosis mc'2 6220
Type: toxicity, cell-based
Assay Setup: read-out: Selectivity Index

{"columns": ["Molecule", "Endpoint Label", "Result"],
 "data": [
  ["CCCc1cc(=O)oc2cc(OCCN3CCCC3)c3c(c12)OC(C)(C)C=C3", "selectivity ratio", 1],
  ["CCCc1cc(=O)oc2cc(N3CCNCC3)c3c(c12)OC(C)(C)C=C3.O=C(O)C(F)(F)F", "selectivity ratio", 0.5]
]}

### Prompt Indicate the recorded selectivity ratio value for this molecule: CCCc1cc(=O)oc2c3c(cc(OCCN4CCOCC4)c12)OC(C)([N+](=O)[O-])C3O (racemic)
### Response > 1
